Listed here: items and their measured IC50.
TEST_TARGET: murine acetylcholinesterase (mAChE) (Mus musculus, UniProt P21836)
Sequence (P21836 32-614): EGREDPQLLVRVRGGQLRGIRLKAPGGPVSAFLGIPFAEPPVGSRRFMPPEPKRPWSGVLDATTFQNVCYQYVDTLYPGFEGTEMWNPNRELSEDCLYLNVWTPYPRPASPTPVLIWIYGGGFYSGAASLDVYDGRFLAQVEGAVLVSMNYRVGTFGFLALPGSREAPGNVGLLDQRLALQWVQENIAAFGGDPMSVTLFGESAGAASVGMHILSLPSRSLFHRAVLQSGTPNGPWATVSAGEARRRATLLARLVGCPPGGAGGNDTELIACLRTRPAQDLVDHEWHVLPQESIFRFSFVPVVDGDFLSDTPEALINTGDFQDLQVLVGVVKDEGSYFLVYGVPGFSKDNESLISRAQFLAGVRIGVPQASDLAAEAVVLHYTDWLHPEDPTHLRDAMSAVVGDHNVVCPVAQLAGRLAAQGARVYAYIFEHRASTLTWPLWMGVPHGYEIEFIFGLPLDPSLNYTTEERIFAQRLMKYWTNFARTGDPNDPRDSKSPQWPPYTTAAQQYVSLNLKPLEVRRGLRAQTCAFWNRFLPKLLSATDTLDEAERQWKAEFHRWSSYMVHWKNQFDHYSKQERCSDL
ASSAY: biochemical
Type: biochemical
MEASUREMENT_CONDITIONS: Table 4; IC50 ± SEM
Your answer should be a plain number; it is taken to be in µM.

The following compounds have reported results that may help.
State recorded IC50 with murine acetylcholinesterase (mAChE) (Mus musculus, UniProt P21836), entry CC(C)c1ccc2[nH]cc(CCCCN3CC=C(c4ccccc4)CC3)c2c1 , no comment.
14

State recorded IC50 with murine acetylcholinesterase (mAChE) (Mus musculus, UniProt P21836), entry Fc1ccc2[nH]cc(CCCCN3CC=C(c4ccccc4)CC3)c2c1 , no comment.
15

Okay, now this compound:
State recorded IC50 with murine acetylcholinesterase (mAChE) (Mus musculus, UniProt P21836), entry OCC1=C(c2ccc(F)cc2)CCN(CCCCc2c[nH]c3ccccc23)C1 , no comment.
7
